experiment: Biodistribution: uptake of 111In-labelled peptides in normal tissues; type: in vivo, mice; conditions: mouse, in vivo, iv, 370 kBq (0.03 nmol)

# chem-smiles, tissue uptake
rows = [
    ("CSCC[C@H](NC(=O)[C@H](Cc1c[nH]c2ccccc12)NC(=O)CNC(=O)[C@H](Cc1ccc(O)cc1)NC(=O)[C@H](C)NC(=O)[C@H](CCC(=O)O)NC(=O)[C@H](CCC(=O)O)NC(=O)[C@H](CCC(=O)O)NC(=O)[C@H](CCC(=O)O)NC(=O)[C@H](CCC(=O)O)NC(=O)[C@@H](CCC(=O)O)NC(=O)CN1CCN(CC(=O)O)CCN(CC(=O)O)CCN(CC(=O)O)CC1)C(=O)N[C@@H](CC(=O)O)C(=O)N[C@@H](Cc1ccccc1)C(N)=O", "> 48 %ID/g"),
]
